B1: library; numbered along this chain (parent)
chain: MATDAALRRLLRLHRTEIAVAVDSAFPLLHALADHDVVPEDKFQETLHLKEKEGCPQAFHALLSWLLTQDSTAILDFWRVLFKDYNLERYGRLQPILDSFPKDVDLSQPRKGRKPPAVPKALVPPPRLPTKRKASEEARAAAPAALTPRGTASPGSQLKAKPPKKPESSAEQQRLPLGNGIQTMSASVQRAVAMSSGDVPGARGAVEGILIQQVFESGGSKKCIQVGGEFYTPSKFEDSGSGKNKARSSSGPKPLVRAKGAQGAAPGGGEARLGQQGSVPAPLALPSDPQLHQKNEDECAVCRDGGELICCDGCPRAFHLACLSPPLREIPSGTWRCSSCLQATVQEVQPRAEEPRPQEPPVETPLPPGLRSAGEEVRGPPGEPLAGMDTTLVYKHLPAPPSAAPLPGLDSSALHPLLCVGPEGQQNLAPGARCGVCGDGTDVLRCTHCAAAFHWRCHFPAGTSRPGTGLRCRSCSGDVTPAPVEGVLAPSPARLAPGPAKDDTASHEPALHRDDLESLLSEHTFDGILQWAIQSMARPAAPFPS

variants of: B1; experiment: AIRE transcriptional activation functional score (insulin promoter-GFP; nonsense median 0, synonymous median 1) (normalised score); higher = higher AIRE activity (more reporter activation); conditions: with insulin promoter-GFP reporter in HEK293
Param threshold (0.9) applies to AIRE transcriptional activation functional score; output MET when value >= threshold, NOT MET when value < threshold.

- mutation code: "K161H"
  group: "NOT MET"
- mutation code: "L81N"
  group: "MET"
- mutation code: "A373F"
  group: "NOT MET"
- mutation code: "K165D"
  group: "NOT MET"
- mutation code: "V362W"
  group: "MET"
- mutation code: "E51Q"
  group: "NOT MET"
- mutation code: "L285D"
  group: "MET"
- mutation code: "M184E"
  group: "NOT MET"
- mutation code: "H30F"
  group: "NOT MET"
- mutation code: "V348H"
  group: "MET"
- mutation code: "C314L"
  group: "NOT MET"
- mutation code: "E167Q"
  group: "NOT MET"
- mutation code: "D514R"
  group: "NOT MET"
- mutation code: "T447G"
  group: "MET"
- mutation code: "A140T"
  group: "MET"
- mutation code: "M184Q"
  group: "NOT MET"
- mutation code: "L75R"
  group: "NOT MET"
- mutation code: "P357W"
  group: "MET"
- mutation code: "A193N"
  group: "MET"
- mutation code: "D514Y"
  group: "NOT MET"
- mutation code: "T447F"
  group: "NOT MET"
- mutation code: "A25P"
  group: "NOT MET"
- mutation code: "H292N"
  group: "MET"
- mutation code: "Q290K"
  group: "MET"
